- PROCEDURE_DETAILS: NCI Yeast Anticancer Drug Screen. Data for the sgs1 mgt1 strain (AID 161);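 also: 0% = growth of cultures given vehicle only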
- SETTINGS: S. cerevisiae sgs1 mgt1 strain, at 5.0 µM (retest, dose inferred, filed as 0.5), active compounds read high
The panel holds about 79,000 compounds, 15% with a hit somewhere; the sample as a whole holds those more often.
Reported growth inhibition by item:
Give the quantity in %, number only.

The cases that follow already have their growth inhibition on record.
COMPOUND	growth inhibition, %
CNC1C(O)C(NC)C2OC3(O)C(=O)CC(C)OC3OC2C1O (stereo not drawn)	-7
C=CC1(NC(=O)c2ccccc2)CCC(C(C)(C)C)CC1 (stereo not drawn)	-5
COc1ccccc1NC(=O)/C(=C/n1c(=S)sc2ccccc21)C(C)=O	7
CCCCCCCC(CC(=O)O)OC(=O)CC(CCCCCCC)OC1OC(C)C(O)C(O)C1OC1OC(C)C(O)C(O)C1O (stereo not drawn)	-43
CCC(=NCCCCCCN=C(CC)c1cc(C)cc([N+](=O)[O-])c1O)c1cc(C)cc([N+](=O)[O-])c1O.[Fe]	11

growth inhibition lookup needed for CCCCCCCCN(CCCCCCCC)CC(O)c1cc2c(c3ccccc13)CCCC2 (stereo not drawn) , thanks. 25

growth inhibition lookup needed for O=C1C/C(=C\c2ccccc2)C(=O)c2ccccc2N1 , thanks. -9

growth inhibition lookup needed for Cc1cc2c(c(C(N)=O)c1C)-c1cccc(F)c1C2=O , thanks. 20

growth inhibition lookup needed for CC(C)(C)CC(C)(C)c1ccc(O)cc1O , thanks. -3

growth inhibition lookup needed for Cc1c2c(c(C)c3c4c(oc13)CCCC4)C=NCC2 , thanks. -7

growth inhibition lookup needed for Cc1ccc(C)c(N2C/C(=N\NC(=O)CC#N)C(c3nc4ccccc4s3)C(=O)C2=O)c1 (stereo not drawn) , thanks. -3

growth inhibition lookup needed for C(=P(c1ccccc1)(c1ccccc1)c1ccccc1)[P+](c1ccccc1)(c1ccccc1)c1ccccc1.[Br][Cu][Br] , thanks. 99

growth inhibition lookup needed for CCOC(=O)Cc1csc(/N=C\c2c(O)c3ccccc3oc2=O)n1 , thanks. 22

----------
Reported growth inhibition by item:
- PROCEDURE_DETAILS: NCI Yeast Anticancer Drug Screen. Data for the mlh1 rad18 strain (AID 175)
- SETTINGS: S. cerevisiae mlh1 rad18 strain growth inhibition; at 50.0 µM; active compounds read high
The panel holds about 79,000 compounds, 15% with a hit somewhere; the sample as a whole holds those more often.
Give the quantity in %, number only.

The cases that follow already have their growth inhibition on record.
COMPOUND	growth inhibition / %
COc1ccc(OC)c2c1C=C[C@H](C1(C)SCCS1)C2C(C)=O (some centres undefined)	77
CC(C)c1cc(O)c(C(C)(C)C)cc1Cl	86.8
OC1(c2ccccc2)c2ccccc2Sc2ccccc21	99.1

Let us move to another entry and its growth inhibition.
growth inhibition lookup needed for NC(CCl)=NCC1C2CC3CC(C2)CC1C3 (centres undefined) , thanks. 89.9

----------
- PROCEDURE_DETAILS: NCI Yeast Anticancer Drug Screen. Data for the mlh1 rad18 strain (AID 175)
- SETTINGS: S. cerevisiae mlh1 rad18 strain growth inhibition; at 5.0 µM (retest, dose inferred, filed as 0.5); active compounds read high
Compounds without any hit were thinned out: in the full panel of roughly 79,000, 15% have a hit.
QUANTITY_NAME: growth inhibition (%)
Give the quantity in %, number only.

The cases that follow already have their growth inhibition on record.
COMPOUND	RECORDED_MEASUREMENT
O=C(CNc1cccc([N+](=O)[O-])c1)Nn1c(-c2ccccc2)nc2ccccc2c1=O	7
CN(C)CCCN=c1c2ccccc2n(O)c2ccccc12	-20
O=[N+]([O-])c1ccccc1SCc1ccccc1	13
COc1ccc(/C=C/c2cc(OC)c(OC)c(OC)c2)cc1O[Si](C)(C)C(C)(C)C	1
CCCCC(Oc1cc(C(C)(C)C)c(O)c(C(C)(C)C)c1)C(=O)O (centres undefined)	27
Clc1ccc(-c2nnn3ccccc23)cc1	13

growth inhibition lookup needed for O=C1OC(=O)C2C1C1(c3ccccc3)OC2(c2ccccc2)c2c(Br)c(Br)c(Br)c(Br)c21 (centres undefined) , thanks. 38

growth inhibition lookup needed for CCC[n+]1ccc(/C=N\NC(N)=S)c2ccccc21 , thanks. 17

growth inhibition lookup needed for CC(C)(C[NH-])C[NH-].[Cl][Pt+2]([Cl])([Cl])[Cl] , thanks. 90

growth inhibition lookup needed for C/C(=N\NC(=S)N1CCCC1)c1nc2ncccc2[nH]1 , thanks. 12

growth inhibition lookup needed for CC(C)C(=O)c1ccc2ccccc2c1O , thanks. -1

growth inhibition lookup needed for CCCCC(CC)COC(=O)c1cc2ccccc2oc1=O (centres undefined) , thanks. 3

growth inhibition lookup needed for CC12CCc3ccccc3C1=Nc1ccccc12 (centres undefined) , thanks. -3

growth inhibition lookup needed for COC(=O)C(=[N+]=[N-])C(=O)c1ccc(Cl)cc1 , thanks. -3

growth inhibition lookup needed for COc1ccc(CN2CCCN(Cc3ccc(OC)cc3)C2Cc2cc(Cl)ccc2OC)cc1 , thanks. 18

----------
- PROCEDURE_DETAILS: NCI Yeast Anticancer Drug Screen. Data for the mlh1 rad18 strain (AID 175)
- SETTINGS: S. cerevisiae mlh1 rad18 strain growth inhibition; at 50.0 µM
About 79,000 compounds went through this panel and 15% of them were active in at least one assay; those are over-represented in the sample as a whole. Active and inactive are the calls of the source. No stated cut-off is given here; in the data, active means growth inhibition above about 70%; inactive means the rest.
Field 'call' accepts active, inactive

MOLECULE	ANSWER_LABEL
CCOC(=O)c1[nH]c2c([N+](=O)[O-])cccc2c1[N+](=O)[O-]	active
COc1ccccc1NC(=O)CSC(N)=O	active
CCCCCCCCCCSC(=NCC)NCC	active

Outcome logged for CC(c1ccc(OCc2ccccc2)cc1)c1cc2c(cc1OCCO)OCO2 (centres undefined) in this assay: inactive

Outcome logged for O=C(C[n+]1ccc2ccccc2c1)c1ccc2ccc3ccccc3c2c1 in this assay: active

Outcome logged for CC(C)(Cl)C(Cl)CC/C(CBr)=C(\Cl)CCl (centres undefined) in this assay: inactive

Outcome logged for Cc1occc1C(=S)Nc1ccc(Cl)c(COC(C)(C)C)c1 in this assay: active

----------
- PROCEDURE_DETAILS: NCI Yeast Anticancer Drug Screen. Data for the sgs1 mgt1 strain (AID 161);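 also: 0% = growth of cultures given vehicle only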
- SETTINGS: S. cerevisiae sgs1 mgt1 strain, at 50.0 µM (retest, dose inferred, filed as 5.0), active compounds read high
- Procedure: Growth inhibition of yeast strains with defined genetic alterations is measured as a screen for potential anti-cancer activity. Selected strains with alterations in DNA damage repair or cell cycle control were exposed to compounds and growth inhibition was measured relative to vehicle treated controls. The strain used in this assay is sgs1 mgt1
About 79,000 compounds went through this panel and 15% of them were active in at least one assay; those are over-represented in the sample as a whole.
Reported growth inhibition by item:
Give the quantity in %, number only.

The cases that follow already have their growth inhibition on record.
COMPOUND_STRING	RECORDED_MEASUREMENT
NC(=O)c1ccc[n+](CC(=O)Nc2ccc(Cl)cc2)c1	-28
Cc1ccc(C(C)C)c(O)c1N/N=C/c1cc(Cl)ccc1O	82

Let us move to another entry and its growth inhibition.
growth inhibition lookup needed for CC(C)(CC(=O)NNc1ccccc1)C(=O)O , thanks. 60

----------
Reported growth inhibition by item:
- PROCEDURE_DETAILS: NCI Yeast Anticancer Drug Screen. Data for the sgs1 mgt1 strain (AID 161);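 also: 0% = growth of cultures given vehicle only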
- SETTINGS: S. cerevisiae sgs1 mgt1 strain, at 50.0 µM (retest, dose inferred, filed as 5.0), active compounds read high
About 79,000 compounds went through this panel and 15% of them were active in at least one assay; those are over-represented in the sample as a whole.
Give the quantity in %, number only.

COMPOUND	growth inhibition, %
COc1ccc(C2c3cc4c(cc3OC(O)(CO)C2C(=O)O)OCO4)cc1 (stereo not drawn) (tested in a mixture with another compound)	40
CCOC(=O)c1[nH]cnc1/N=N/c1nc(O)c(C#N)[nH]1	99

Let us move to another entry and its growth inhibition.
growth inhibition lookup needed for O=C(O/N=C(/Cc1ccccc1)c1ccccc1)c1ccccc1 , thanks. 76

----------
- PROCEDURE_DETAILS: NCI Yeast Anticancer Drug Screen. Data for the rad50 strain (AID 155);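 also: 0% = growth of vehicle-only cultures of the same strain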
- SETTINGS: S. cerevisiae rad50 strain growth inhibition; at 5.0 µM (retest, dose inferred, filed as 0.5); active compounds read high
The panel holds about 79,000 compounds, 15% with a hit somewhere; the sample as a whole holds those more often.
# binarize growth inhibition: threshold 10% inclusive, high side yes (1), low side no (0)

Examples with answers:
COMPOUND	ANSWER_LABEL
O=C([O][Sb]([O]C(=O)C(Cl)(Cl)Cl)([c]1ccccc1)([c]1ccccc1)[c]1ccccc1)C(Cl)(Cl)Cl	yes (1)
CCC1=CCC2C(=O)c3cc4ccccc4cc3C(=O)C2C1 (centres undefined)	yes (1)
COC1/C=C\C=C(/C)C(=O)NC2=CC(=O)C(N)=C(CC(C)CC(OC)C(O)C(C)C=C(C)C1OC(N)=O)C2=O (centres undefined)	no (0)

Check if growth inhibition >= 10% (inclusive). Item: CC1CCN(CCOC(=O)C(c2ccccc2)C2C=CCCC2)C1 (centres undefined) no (0)

Check if growth inhibition >= 10% (inclusive). Item: CCCCc1[nH]ccc2c(C)c3nc4ccccc4c3cc12 no (0)

Check if growth inhibition >= 10% (inclusive). Item: O=C(CBr)c1cc(-c2ccc(Cl)cc2)nc2ccccc12 yes (1)

Check if growth inhibition >= 10% (inclusive). Item: O=C(Nc1ccc([N+](=O)[O-])cc1[N+](=O)[O-])C(=O)C(C(=O)c1ccc(Cl)c(Cl)c1)C1OC(=O)c2ccccc21 (centres undefined) yes (1)
